Documented pEC50 across a set of molecules
# measurement_target: UniProt Q01726
# Sequence (Q01726 whole entry): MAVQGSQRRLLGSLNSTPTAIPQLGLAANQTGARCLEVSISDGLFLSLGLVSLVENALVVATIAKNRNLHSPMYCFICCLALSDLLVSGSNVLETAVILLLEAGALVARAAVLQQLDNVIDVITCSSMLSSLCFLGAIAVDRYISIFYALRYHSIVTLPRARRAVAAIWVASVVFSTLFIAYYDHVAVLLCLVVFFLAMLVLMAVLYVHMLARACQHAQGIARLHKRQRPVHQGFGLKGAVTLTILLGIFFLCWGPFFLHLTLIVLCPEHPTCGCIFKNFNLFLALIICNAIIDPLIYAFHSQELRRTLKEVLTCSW
# assay_remarks: Transactivation test: melanocortin receptors (pCRE-Luc luciferase reporter), hMC1R
# test_context: HEK293 transfected with pCRE-Luc and hMC1R; products tested alone (agonist), 6 h incubation; % activity vs NDP-MSH 10 nM; IA: inactive
pEC50: −log10 of the molar value. Structures can show the parent of a compound that is named as a salt.

>  <molecule>
CCCCCC1(c2ccccc2)CN(C(=O)[C@@H](Cc2ccccc2F)NC(=O)CCc2c[nH]cn2)C1

>  <pEC50>
6.00

$$$$
>  <molecule>
COc1ccc(C[C@H](NC(=O)CCc2c[nH]cn2)C(=O)N2CC(O)(c3ccccc3C)C2)cc1

>  <pEC50>
5.40

$$$$
>  <molecule>
CCCOC1(c2ccccc2C)CN(C(=O)[C@H](Cc2ccc(OC)cc2)NC(=O)CCc2c[nH]cn2)C1

>  <pEC50>
5.40

$$$$
>  <molecule>
CCCCOC1(c2ccccc2C)CN(C(=O)[C@@H](Cc2ccc(OC)cc2)NC(=O)C=Cc2c[nH]cn2)C1

>  <pEC50>
5.40

$$$$
>  <molecule>
COc1ccc(C[C@H](NC(=O)CCc2c[nH]cn2)C(=O)N2CC(OCC3CC3)(c3ccccc3C)C2)cc1

>  <pEC50>
5.70

$$$$
>  <molecule>
CCCCCC1(c2ccccc2)CN(C(=O)[C@@H](Cc2ccc(Cl)cc2)NC(=O)CCc2c[nH]cn2)C1

>  <pEC50>
5.70

$$$$
>  <molecule>
COc1ccc(C[C@H](NC(=O)[C@H](Cc2c[nH]cn2)NC(=O)c2ccccc2)C(=O)N2CC(O)(c3ccccc3C)C2)cc1

>  <pEC50>
6.60

$$$$
>  <molecule>
COc1ccc(C[C@@H](NC(=O)CCc2c[nH]cn2)C(=O)N2CC(OCC3CC3)(c3ccccc3)C2)cc1

>  <pEC50>
6.00

$$$$
>  <molecule>
CCCCOC1(c2ccc(F)cc2)CN(C(=O)[C@@H](Cc2ccccc2)NC(=O)CCC2=NCC=N2)C1

>  <pEC50>
6.00

$$$$
>  <molecule>
CCCCOC1(c2ccc(F)cc2)CN(C(=O)[C@@H](Cc2ccc(F)cc2)NC(=O)CCc2c[nH]cn2)C1

>  <pEC50>
6.00

$$$$
>  <molecule>
CCCCCOC1(c2ccccc2C)CN(C(=O)[C@@H](Cc2ccc(OC)cc2)NC(=O)CCc2c[nH]cn2)C1

>  <pEC50>
6.60

$$$$
>  <molecule>
CCCCOC1(c2ccccc2C)CN(C(=O)C(Cc2ccc(OC)cc2)NC(=O)CC(CC)c2c[nH]cn2)C1 (stereo not shown)

>  <pEC50>
6.30

$$$$
>  <molecule>
CCCCC1(c2ccccc2)CN(C(=O)[C@@H](Cc2ccc(OC)cc2)NC(=O)CCc2c[nH]cn2)C1

>  <pEC50>
6.30

$$$$
>  <molecule>
COc1ccc(C[C@@H](NC(=O)CCc2c[nH]cn2)C(=O)N2CC(OCC3CC3)(c3ccccc3C)C2)cc1

>  <pEC50>
6.92

$$$$
>  <molecule>
CCCCCC1(c2ccccc2)CN(C(=O)[C@@H](Cc2cccc(F)c2)NC(=O)CCc2c[nH]cn2)C1

>  <pEC50>
5.40

$$$$
>  <molecule>
COc1ccc(C[C@@H](NC(=O)CCc2c[nH]cn2)C(=O)N2CC(OCC3CCCCC3)(c3ccccc3C)C2)cc1

>  <pEC50>
6.92

$$$$
>  <molecule>
CCCCOC1(c2ccccc2C)CN(C(=O)[C@@H](Cc2ccc(OC)cc2)NC(=O)CCC2N=NC(C)=N2)C1 (stereo partly shown)

>  <pEC50>
5.10

$$$$
>  <molecule>
CCCCOC1(c2ccccc2C)CN(C(=O)C(Cc2ccc(OC)cc2O)NC(=O)CCc2cnc[nH]2)C1 (stereo not shown) [Compound 70, trifluoroacetate]

>  <pEC50>
5.40

$$$$
>  <molecule>
CCCCOC1(c2ccc(F)cc2)CN(C(=O)[C@@H](Cc2ccc(OC)cc2)NC(=O)CCc2c[nH]cn2)C1

>  <pEC50>
7.22

$$$$
>  <molecule>
CCCCOC1(c2ccccc2C)CN(C(=O)C(NC(=O)CCc2c[nH]cn2)C(O)c2ccc(OC)cc2)C1 (stereo not shown)

>  <pEC50>
6.30

$$$$
>  <molecule>
CCCCOC1(c2ccccc2)CN(C(=O)[C@@H](Cc2ccccc2)NC(=O)CCc2c[nH]cn2)C1

>  <pEC50>
6.30

$$$$
>  <molecule>
CCCCCC1(c2ccccc2)CN(C(=O)[C@@H](Cc2ccc(C(F)(F)F)cc2)NC(=O)CCc2c[nH]cn2)C1

>  <pEC50>
6.00

$$$$
>  <molecule>
CCCCCC1(c2ccccc2)CN(C(=O)[C@@H](Cc2ccc(Cl)cc2Cl)NC(=O)CCc2c[nH]cn2)C1

>  <pEC50>
5.70

$$$$
>  <molecule>
O=C(CCc1c[nH]cn1)N[C@H](Cc1ccc(Cl)c(Cl)c1)C(=O)N1CC(O)(c2ccccc2)C1

>  <pEC50>
5.10

$$$$
>  <molecule>
CCCCOC1(c2ccccc2)CN(C(=O)[C@@H](Cc2ccc(F)cc2)NC(=O)CCc2c[nH]cn2)C1

>  <pEC50>
6.30

$$$$
>  <molecule>
COc1ccc(C[C@@H](NC(=O)CCc2c[nH]cn2)C(=O)N2CC(OCCCC(F)(F)F)(c3ccccc3C)C2)cc1

>  <pEC50>
6.92

$$$$
>  <molecule>
CCCCOC1(c2ccccc2C)CN(C(=O)[C@@H](Cc2ccc(O)cc2)NC(=O)CCc2cnc[nH]2)C1

>  <pEC50>
5.70

$$$$
>  <molecule>
CCCCCC1(c2ccc(Cl)c(Cl)c2)CN(C(=O)[C@@H](Cc2ccc(OC)cc2)NC(=O)CCc2c[nH]cn2)C1

>  <pEC50>
6.60

$$$$

Recorded values, source patent US9630949B2.
